Experiment: Volume of distribution at steady state in rat at 5 mg/kg, iv administered with 20% HPbetaCD
Type: ADME, organism-based
Design: dose 5 mg/kg, route intravenous
Settings: in vivo, read-out: Vdss
measurement_name: Vd (L/kg)
Could you give me the number in L/kg? Just the number is fine.

Provide only the value of recorded Vd for CS(=O)(=O)CC[C@@H]1OCC[C@@]2(S(=O)(=O)c3ccc(Cl)cc3)c3c(F)ccc(F)c3OC[C@@H]12 5.4

###

Experiment: Tmax in rat at 10 mg/kg, po administered with 20% HPbetaCD
Format: ADME, organism-based
Parameters: dose 10 mg/kg, route oral
Details: in vivo
measurement_name: Tmax (min)
Could you give me the number in min? Just the number is fine.

Provide only the value of recorded Tmax for CS(=O)(=O)CC[C@@H]1OCC[C@@]2(S(=O)(=O)c3ccc(Cl)cc3)c3c(F)ccc(F)c3OC[C@@H]12 42

###

Assay: Volume of distribution at steady state in dog at 2.5 mg/kg, iv administered with 0.4% HPMC
Type: ADME, organism-based, Canis lupus familiaris
Parameters: dose 2.5 mg/kg, route intravenous
Conditions: in vivo, read-out: Vdss
measurement_name: Vd
Enter the number, and then the unit.

Provide only the value of recorded Vd for CS(=O)(=O)CC[C@@H]1OCC[C@@]2(S(=O)(=O)c3ccc(Cl)cc3)c3c(F)ccc(F)c3OC[C@@H]12 3.1 L/kg

###

Molecular target: Presenilin-2 (Homo sapiens, UniProt P49810)
Sequence (P49810 1-297 limits assumed): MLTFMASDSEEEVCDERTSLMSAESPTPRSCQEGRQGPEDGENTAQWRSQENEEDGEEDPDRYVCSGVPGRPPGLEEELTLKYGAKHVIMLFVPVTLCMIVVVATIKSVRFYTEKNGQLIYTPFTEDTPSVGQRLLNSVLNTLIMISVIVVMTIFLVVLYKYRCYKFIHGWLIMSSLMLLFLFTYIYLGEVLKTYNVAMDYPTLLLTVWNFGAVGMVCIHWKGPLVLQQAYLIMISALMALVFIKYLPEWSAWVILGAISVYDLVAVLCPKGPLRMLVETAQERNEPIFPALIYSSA
Sequence (P49810 298-448 limits assumed): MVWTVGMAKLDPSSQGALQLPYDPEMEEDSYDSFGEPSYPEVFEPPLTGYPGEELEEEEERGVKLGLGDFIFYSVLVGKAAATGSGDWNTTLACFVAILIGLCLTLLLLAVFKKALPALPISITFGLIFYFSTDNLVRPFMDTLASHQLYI
Test: Inhibition of PS2 gamma-secretase expressed in HEK cells harboring Awe-Lon gene assessed as reduction of amyloid beta-42 production
# pIC50 listing for each entry below
Entry type: numeric. Quantity: pIC50, the -log10 of concentration in molar units.

Provide only the value of recorded pIC50 for CC(C)S(=O)(=O)CC[C@@H]1OCC[C@@]2(S(=O)(=O)c3ccc(Cl)cc3)c3c(F)ccc(F)c3OC[C@@H]12 (racemic) 8.00

Provide only the value of recorded pIC50 for O=S(=O)(c1ccc(Cl)cc1)[C@@]12CCO[C@@H](CCO)[C@@H]1COc1c(F)ccc(F)c12 8.10

Provide only the value of recorded pIC50 for N#CCC[C@@H]1OCC[C@@]2(S(=O)(=O)c3ccc(Cl)cc3)c3c(F)ccc(F)c3OC[C@@H]12 (racemic) 7.80

Then there is this compound:
Provide only the value of recorded pIC50 for CNC(=O)OCC[C@@H]1OCC[C@@]2(S(=O)(=O)c3ccc(Cl)cc3)c3c(F)ccc(F)c3OC[C@@H]12 (racemic) 8.22
